Target: T1, CD123 (Homo sapiens (Human), UniProt P26951 19-305, limits assumed)
T1 construct: also called CD123-Signal
T1 sequence: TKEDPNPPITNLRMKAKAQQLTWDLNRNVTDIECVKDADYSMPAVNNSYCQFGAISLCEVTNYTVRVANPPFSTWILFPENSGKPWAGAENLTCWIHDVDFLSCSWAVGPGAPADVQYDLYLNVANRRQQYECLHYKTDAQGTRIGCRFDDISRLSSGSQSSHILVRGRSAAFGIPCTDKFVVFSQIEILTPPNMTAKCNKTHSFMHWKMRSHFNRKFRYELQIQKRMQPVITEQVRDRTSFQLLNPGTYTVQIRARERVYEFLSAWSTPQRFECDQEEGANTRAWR
Experiment: ELISA, format not described
Set-up: unit not given here
The entries below come with measured ELISA_avg values attached.
# respond with the number and nothing more

What measured ELISA_avg goes with D domain SEQ ID NO: 708 (designed binder) MGSWFEFEWRLDAIENRLNALGGSEAELAWFEYHIAAFEDSLQHYKGKGNPEVEALEWEAHAIQSELQAYRHN ?
3.3

What measured ELISA_avg goes with D domain SEQ ID NO: 719 (designed binder) MGSWYEFYDRLDAIEWRLWALGGSEAELAAFEKEIAAFESELQAYKGKGNPEVEWLRDEAAQIRDFLQAYRHN ?
6.2

What measured ELISA_avg goes with D domain SEQ ID NO: 667 (designed binder) MGSWHEFIWRLDAIEERLWALGGSEAELAWFETEIATFEAQLQDYKGKGNPEVEALEWEAIAIAWELDAYRHN ?
3.3
